Reference for the values: patent US7659296B2

TEST TARGET: RXR-VDR heterodimer (Homo sapiens, UniProt P11473)
Construct: add the Gal-4-RXR-DEF and VP16-VDR-LBD
Sequence (P11473 127-423 limits assumed): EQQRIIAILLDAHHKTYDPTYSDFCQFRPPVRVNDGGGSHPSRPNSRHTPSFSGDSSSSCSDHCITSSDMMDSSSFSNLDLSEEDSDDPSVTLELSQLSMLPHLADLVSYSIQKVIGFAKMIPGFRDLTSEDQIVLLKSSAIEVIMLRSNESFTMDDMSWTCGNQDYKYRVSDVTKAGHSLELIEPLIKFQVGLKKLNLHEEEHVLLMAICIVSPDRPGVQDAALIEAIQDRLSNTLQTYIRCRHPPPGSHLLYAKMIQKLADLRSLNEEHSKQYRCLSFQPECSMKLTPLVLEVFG
Sequence (P19793 201-462 partner limits assumed): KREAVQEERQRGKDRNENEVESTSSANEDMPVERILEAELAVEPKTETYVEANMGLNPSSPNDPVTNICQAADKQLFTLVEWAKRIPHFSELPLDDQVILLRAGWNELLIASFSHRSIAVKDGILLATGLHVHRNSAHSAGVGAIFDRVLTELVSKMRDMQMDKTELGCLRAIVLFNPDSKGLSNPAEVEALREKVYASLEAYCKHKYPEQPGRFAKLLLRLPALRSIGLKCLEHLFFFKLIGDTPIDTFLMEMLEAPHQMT
TEST NAME: RXR-VDR heterodimerization (SaOS-2 cells) test
MEASUREMENT PARAMETERS: Gal-4-RXR-DEF and VP16-VDR-LBD, luciferase reporter
ENDPOINT LABEL: EC50

1. CCC(CC)(c1ccc(OCC(=O)C(C)(C)C)c(C)c1)c1nc2ccc(C(=O)N(C)C)cc2o1
701 nM
2. CCC(CC)(c1ccc(OCC(=O)C(C)(C)C)c(C)c1)c1nc2ccc(C(N)=O)cc2o1
73 nM
3. CCC(CC)(c1ccc(OCC(=O)C(C)(C)C)c(C)c1)c1nc2cc(C(N)=O)ccc2o1
177 nM
4. CCC(CC)(c1ccc(OCC(=O)C(C)(C)C)c(C)c1)c1nc2cc(C(=O)O)ccc2o1
37 nM
